Values were extracted from the supplement of paper PMC8975748.

- System: Saccharomyces cerevisiae BY4741 SeMeCo community
- Assay explanation: z-score of prototroph abundance vs DMSO median; higher = larger share of this subpopulation than in DMSO controls
- Condition set: 10 µM; 24 h; SM minimal medium; subpopulation (auxotrophy): Prototroph
Structures can show the parent of a compound that is named as a salt.
Readout: z-score of prototroph abundance
# output: bare number, no unit

Look over these answered cases.
Compound: O=C(Nc1cccc(C2=NCCN2)c1)Nc1cccc(C2=NCCN2)c1 [Imidocarb dipropionate]
Result number: 0.72

Compound: CC(c1cc2ccccc2s1)N(O)C(N)=O (centres undefined)
Result number: 0.05

Compound: Fc1ccc([C@@H]2CCNC[C@H]2COc2ccc3c(c2)OCO3)cc1 [Paroxetine mesylate]
Result number: 0.14

Compound: C[C@@H](O)[C@H]1C(=O)N2C(C(=O)[O-])=C(SC3Cn4cnc[n+]4C3)[C@H](C)[C@H]12 (some centres undefined)
Result number: 0.75

Compound: CC(=O)NC[C@H]1CN(c2ccc(N3CCOCC3)c(F)c2)C(=O)O1
Result number: -0.12

query: // map "CC[C@H]1OC(=O)C[C@@H](O)[C@H](C)[C@@H](O[C@@H]2O[C@H](C)[C@@H](O[C@H]3C[C@@](C)(O)[C@@H](O)[C@H](C)O3)[C@H](N(C)C)[C@H]2O)[C@@H](CC=O)C[C@@H](C)C(=O)/C=C/C(C)=C/[C@@H]1CO[C@@H]1O[C@H](C)[C@@H](O)[C@@H](OC)[C@H]1OC" to recorded z-score of prototroph abundance (system: Saccharomyces cerevisiae BY4741 SeMeCo community)
result: -1.25

query: How about "Nc1ccc(C(=O)O)c(O)c1" ?
result: 2.23

query: How about CC1(C)S[C@@H]2[C@H](NC(=O)[C@H](C(=O)O)c3ccsc3)C(=O)N2[C@H]1C(=O)O [Ticarcillin sodium] ?
result: -0.89

query: How about Cc1cccc(C)c1NC(=O)C1CCCCN1C (centres undefined) [Mepivacaine HCl] ?
result: -0.33

query: How about COc1cc(/C=C/C(=O)N2CCN(CC(=O)N3CCCC3)CC2)cc(OC)c1OC [Cinepazide maleate] ?
result: -0.19

query: How about Clc1ccc(C(Cn2ccnc2)OCc2csc3c(Cl)cccc23)c(Cl)c1 (centres undefined) [Sertaconazole nitrate] ?
result: -8.82

query: How about CC1=C(C(=O)O)N2C(=O)[C@@H](NC(=O)[C@H](N)C3=CCC=CC3)[C@H]2SC1 [Cephradine monohydrate] ?
result: 0.03

query: How about "C[C@H]1NCc2cc(-c3ccc4c(=O)c(C(=O)O)cn(C5CC5)c4c3OC(F)F)ccc21" ?
result: -0.68

query: How about CN[C@H]1CC[C@@H](c2ccc(Cl)c(Cl)c2)c2ccccc21 [Sertraline HCl] ?
result: 1.15

query: How about CC1=C(C(=O)O)N2C(=O)[C@@H](NC(=O)[C@H](N)C3=CCC=CC3)[C@H]2SC1 [Cefradine] ?
result: 0.86

query: How about CCN(CC)C(=O)N1CCN(C)CC1 [Diethylcarbamazine citrate] ?
result: 0.16

query: How about CCN(CC)CCOC(=O)c1ccc(N)cc1 [Procaine HCl] ?
result: 0.84

query: How about CC1(C)S[C@@H]2[C@H](NC(=O)Cc3ccccc3)C(=O)N2[C@H]1C(=O)O [Benzylpenicillin potassium] ?
result: -0.27

query: How about CN(C)CCC[C@@]1(c2ccc(F)cc2)OCc2cc(C#N)ccc21 [Escitalopram Oxalate] ?
result: 1.15
